assay: Solubility measurement (DMSO solution precipitation method); type: physicochemical; conditions: aqueous buffer, kinetic from dmso stock, McIlvaine buffer pH 6.8, 24 h, read-out: solubility pH 6.8
Quick rule for you: solubility at 24 h at 70 µg/mL or higher means class 1, lower means class 0.

{"COMPOUND": "C[C@H](Oc1nc(-c2onc3c2CCC[C@@]32CCCc3sc(N)c(C#N)c32)nc2c1n(C)c(=O)n2[C@@H]1CCOC1)[C@@H]1C[C@@H]2C[C@@H]2N1C", "ASSIGNED CATEGORY": "class 0"}
{"COMPOUND": "C[C@H](Oc1nc(-c2onc3c2CCC[C@@]32CCCc3sc(N)c(C#N)c32)nc2c1n(C)c(=O)n2[C@H]1CCOC1)[C@@H]1CCCN1C", "ASSIGNED CATEGORY": "class 1"}
{"COMPOUND": "CO[C@H]1CCN(C)[C@@H]1[C@H](C)Oc1nc(-c2onc3c2CCC[C@@]32CCCc3sc(N)c(C#N)c32)nc2c1n(C)c(=O)n2[C@H]1COC[C@@H](C)C1", "ASSIGNED CATEGORY": "class 0"}
{"COMPOUND": "CCn1c(=O)n([C@@H]2CCCOC2)c2nc(-c3onc4c3CCC[C@@]43CCCc4sc(N)c(C#N)c43)nc(OCC34CCCN3CCC4)c21", "ASSIGNED CATEGORY": "class 1"}
{"COMPOUND": "CO[C@@H]1C[C@@H]([C@H](C)Oc2nc(-c3onc4c3CCC[C@@]43CCCc4sc(N)c(C#N)c43)nc3c2n(C)c(=O)n3[C@H]2COC[C@@H](C)C2)N(C)C1", "ASSIGNED CATEGORY": "class 0"}
{"COMPOUND": "CO[C@@H]1C[C@@H]([C@H](C)Oc2nc(-c3onc4c3CCC[C@@]43CCCc4sc(N)c(C#N)c43)nc3c2n(C)c(=O)n3[C@@]23COC[C@@H]2C3)N(C)C1", "ASSIGNED CATEGORY": "class 0"}
{"COMPOUND": "C[C@H](Oc1nc(-c2onc3c2CCC[C@@]32CCCc3sc(N)c(C#N)c32)nc2c1n(C)c(=O)n2[C@H]1CC2CCC1O2)[C@@H]1CCCN1C (stereo partly drawn)", "ASSIGNED CATEGORY": "class 1"}
{"COMPOUND": "C[C@@H]1COC[C@H](n2c(=O)n(C)c3c(O[C@@H](C)[C@@H]4CCCN4C)nc(-c4onc5c4CCC[C@@]54CCCc5sc(N)c(C#N)c54)nc32)C1", "ASSIGNED CATEGORY": "class 0"}

Q. Determine whether measured solubility at 24 h meets or exceeds 70 µg/mL for C[C@H](Oc1nc(-c2onc3c2CCC[C@@]32CCCc3sc(N)c(C#N)c32)nc2c1n(C)c(=O)n2[C@@H]1CCOC1)[C@@H]1CC[C@H](C)N1C
A. class 1

Q. Determine whether measured solubility at 24 h meets or exceeds 70 µg/mL for C[C@H](Oc1nc(-c2noc3c2CCC[C@@]32CCCc3sc(N)c(C#N)c32)nc2c1n(C)c(=O)n2[C@@H]1CCOC1)[C@@H]1CCCN1C
A. class 1

Q. Determine whether measured solubility at 24 h meets or exceeds 70 µg/mL for C[C@H](Oc1nc(-c2onc3c2CCC[C@@]32CCCc3sc(N)c(C#N)c32)nc2c1cnn2[C@@H]1CCOC1)[C@@H]1CCCN1C
A. class 1
